Data origin, for the record: patent US8119630B2

Test system: RSV
Experiment: XTT assay, RSV-infected Vero cells
Format: cell-based, Respiratory Syncytial Virus (RSV)
Conditions: human respiratory syncytial virus, Vero, 144 h, read-out: XTT IC50 (uM), Table 2, Examples 83 to 124; Vero cells infected with RSV, m.o.i.≈0.2, 6 days at 33° C.
Please respond with Yes when measured IC50 is strictly beneath 4 µM, and with No in all other cases.

{"compound": "Cc1cccc(C)c1NC(=O)NC1N=C(c2ccccc2)c2ccccc2NC1=O (centres unmarked)", "assigned_category": "No"}
{"compound": "COc1cccc(CCC(=O)NC2N=C(c3ccccc3)c3ccccc3NC2=O)c1 (centres unmarked)", "assigned_category": "No"}
{"compound": "COc1ccc(C(=O)NC2N=C(c3ccc(C(F)(F)F)cc3)c3ccccc3NC2=O)cc1 (centres unmarked)", "assigned_category": "No"}
{"compound": "COc1ccc(Br)c(C(=O)NC2N=C(c3ccccc3)c3ccccc3NC2=O)c1 (centres unmarked)", "assigned_category": "Yes"}
{"compound": "CCOc1ccccc1C(=O)NC1N=C(c2ccccc2)c2ccccc2NC1=O (centres unmarked)", "assigned_category": "Yes"}
{"compound": "COc1ccc(C(=O)NC2N=C(c3ccccc3)c3ccccc3NC2=O)c(OC)c1 (centres unmarked)", "assigned_category": "Yes"}

====

System: Vero cells
Experiment: Simultaneous toxicity investigation (XTT), Vero cells
Type: cell-based
Design: unit not given here
Conditions: Table 2, Examples 83 to 124, 2d

{"compound": "COc1ccccc1CCC(=O)NC1N=C(c2ccccc2)c2ccccc2NC1=O (centres unmarked)", "TC50 (2d)": ">100"}
{"compound": "COc1ccc(CNC(=O)NC2N=C(c3ccccc3)c3ccccc3NC2=O)cc1 (centres unmarked)", "TC50 (2d)": ">100"}
{"compound": "COc1ccccc1C(=O)NC1N=C(c2ccccc2)c2ccc(C)cc2NC1=O (centres unmarked)", "TC50 (2d)": ">100"}
{"compound": "Cc1cc(C)cc(NC(=O)NC2N=C(c3ccccc3)c3ccccc3NC2=O)c1 (centres unmarked)", "TC50 (2d)": ">100"}
{"compound": "O=C(NCc1ccccc1F)NC1N=C(c2ccccc2)c2ccccc2NC1=O (centres unmarked)", "TC50 (2d)": ">100"}
{"compound": "O=C(Nc1c(Cl)cccc1Cl)NC1N=C(c2ccccc2)c2ccccc2NC1=O (centres unmarked)", "TC50 (2d)": 70}
{"compound": "CS(=O)(=O)c1ccc(C(=O)NC2N=C(c3ccccc3)c3ccccc3NC2=O)c(Cl)c1 (centres unmarked)", "TC50 (2d)": ">100"}
{"compound": "COc1cccc(C(=O)NC2N=C(c3ccccc3)c3ccccc3NC2=O)c1[N+](=O)[O-] (centres unmarked)", "TC50 (2d)": 100}
{"compound": "COc1ccc(Cl)cc1C(=O)NC1N=C(c2ccccc2)c2ccccc2NC1=O (centres unmarked)", "TC50 (2d)": 100}
{"compound": "Cc1cccc(CNC(=O)NC2N=C(c3ccccc3)c3ccccc3NC2=O)c1 (centres unmarked)", "TC50 (2d)": ">100"}
{"compound": "Cc1cccc(C)c1NC(=O)NC1N=C(c2ccccc2)c2ccccc2NC1=O (centres unmarked)", "TC50 (2d)": ">100"}
{"compound": "O=C(Nc1ccc(Br)cc1C(F)(F)F)NC1N=C(c2ccccc2)c2ccccc2NC1=O (centres unmarked)", "TC50 (2d)": 60}
{"compound": "COc1cccc(C2=NC(NC(=O)c3ccccc3OC)C(=O)Nc3ccccc32)c1 (centres unmarked)", "TC50 (2d)": 50}
{"compound": "O=C(Nc1cccc(Cl)c1Cl)NC1N=C(c2ccccc2)c2ccccc2NC1=O (centres unmarked)", "TC50 (2d)": ">100"}
{"compound": "COc1ccc([N+](=O)[O-])c(C(=O)NC2N=C(c3ccccc3)c3ccccc3NC2=O)c1 (centres unmarked)", "TC50 (2d)": ">100"}
{"compound": "COc1ccc(Br)c(C(=O)NC2N=C(c3ccccc3)c3ccccc3NC2=O)c1 (centres unmarked)", "TC50 (2d)": ">100"}
{"compound": "COc1cccc(CCC(=O)NC2N=C(c3ccccc3)c3ccccc3NC2=O)c1 (centres unmarked)", "TC50 (2d)": ">100"}
{"compound": "CCOc1ccccc1C(=O)NC1N=C(c2ccccc2)c2ccccc2NC1=O (centres unmarked)", "TC50 (2d)": ">100"}
{"compound": "COc1cc([N+](=O)[O-])ccc1C(=O)NC1N=C(c2ccccc2)c2ccccc2NC1=O (centres unmarked)", "TC50 (2d)": 100}
{"compound": "COc1ccccc1C(=O)NC1N=C(c2cccc(Cl)c2)c2ccccc2NC1=O (centres unmarked)", "TC50 (2d)": 100}
{"compound": "COc1cc(C(=O)NC2N=C(c3ccccc3)c3ccccc3NC2=O)ccc1[N+](=O)[O-] (centres unmarked)", "TC50 (2d)": 100}
{"compound": "COc1ccc(C(=O)NC2N=C(c3cccc(C(F)(F)F)c3)c3ccccc3NC2=O)cc1 (centres unmarked)", "TC50 (2d)": ">100"}
{"compound": "COc1cc(Cl)ccc1C(=O)NC1N=C(c2ccccc2)c2ccccc2NC1=O (centres unmarked)", "TC50 (2d)": 100}
{"compound": "O=C(Nc1ccc(OC(F)(F)F)cc1)NC1N=C(c2ccccc2)c2ccccc2NC1=O (centres unmarked)", "TC50 (2d)": 20}
{"compound": "COc1ccc(F)cc1C(=O)NC1N=C(c2ccccc2)c2ccccc2NC1=O (centres unmarked)", "TC50 (2d)": 100}
{"compound": "COc1ccccc1C(=O)NC1N=C(c2cccc(C(F)(F)F)c2)c2ccccc2NC1=O (centres unmarked)", "TC50 (2d)": ">100"}
{"compound": "COc1ccc(C(=O)NC2N=C(c3ccccc3)c3ccccc3NC2=O)cc1[N+](=O)[O-] (centres unmarked)", "TC50 (2d)": ">100"}
{"compound": "O=C(NC1N=C(c2ccccc2)c2ccccc2NC1=O)OCc1ccccc1 (centres unmarked)", "TC50 (2d)": ">100"}
{"compound": "COc1ccc(C(=O)NC2N=C(c3ccccc3)c3ccccc3NC2=O)c(OC)c1 (centres unmarked)", "TC50 (2d)": 60}
